Origin of the recorded values: ChEMBL document CHEMBL5370625

conditions: human, hepatocytes
Description: Apparent intrinsic clearance in human hepatocytes measured per million cells by LC-MS/MS analysis
experimental_readout: CLH(app)

Before answering, review these 4 worked examples.
# molecule, CLH(app)
records = [
    ("CCOc1cccnc1Oc1cncc(-c2ncc(C(=O)N[C@H]3CNC[C@H](F)C3)cn2)c1", "< 1.9 µL/min"),
    ("CCOc1cccnc1Oc1cncc(-c2ncc(C(=O)N[C@H]3CCNC3)cn2)c1", "< 1.8 µL/min"),
    ("CCOc1cccnc1Oc1cncc(-c2ncc(C(=O)N[C@@H]3CCNC3)cn2)c1", "< 3 µL/min"),
    ("CCOc1cccnc1Oc1cncc(-c2ncc(C(=O)N[C@@H]3CNCC[C@@H]3F)cn2)c1", "< 1.9 µL/min"),
]

// next entry
Ask | Can you share its CLH(app)? I mean this compound: CCOc1cccnc1Oc1cncc(-c2ncc(C(=O)N[C@@H]3CNCC[C@H]3F)cn2)c1
Reply | < 1.9 µL/min
